// apparent KD of MS2 coat protein lookup, one value per entry
# System: MS2 coat protein
# experiment.summary: apparent KD of MS2 coat protein; designed switch direction (-1 OFF switch, 1 ON switch): -1; higher = weaker reporter binding
# test.context: Eterna round: R95; input ligand: microRNA oligo, concentration not stated
Just the number in nM, nothing appended.

sequence.chain	unit.descriptor	apparent KD of MS2 coat protein
GCCAGAGCAGGAUAUUCAAUAAUUCACAUGAGGAUCACCCAUGUCGAGCGAAAGCUCGAGGGAGAAGGGCUCUGGC [Fiskers Ex 5 - 6] (puzzle: Exclusion 5)	nM	34.8
GAGUGACAUGAGGAUCACCCAUGUGAGGAUAUCGGACGGACCAAAUUAACAACAACCGCGAGAAGGCACAUCGG [Exclusion 1 V20] (puzzle: Exclusion 1)	nM	112

Find the measured apparent KD of MS2 coat protein: item CUUUUGUGAGGAUAUUAGUAGUAAUACAAUAGUAUUACUACUGAGAAGGCACAUGAGGAUCACCCAUGUUCCUC [Ex4 344 Omei mod 5] (puzzle: Exclusion 4) , target or system MS2 coat protein.
36.5

Item: GCGAAAGCAAGCAGGUGAAACAUGAGGAUCACCCAUGUCCUCAUUUGCUCGUCUUAUAAGCUAUGCGAAAGCAUAGC [Sensor 3, v1 - 3] (puzzle: Sensor v3, turn-off variant 1)
113

###

# Tested on: K4 kissing-loop RNA reporter;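 further: bound reporter read as fluorescence of individual clusters on recovered sequencing chips by microscopy, with normalized cluster intensities fitted with a binding model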
# experiment.summary: apparent KD of K4 kissing-loop reporter; higher = weaker reporter binding
# test.context: Eterna round: R107; input ligand: theophylline 20 uM
test.readout: apparent KD of K4 kissing-loop reporter (nM)
Just the number in nM, nothing appended.

See these solved cases before continuing.
sequence.chain	apparent KD of K4 kissing-loop reporter (nM)
AUUUUUUUGUCAGGAUAUUAGUGUGGGUUUGGUUUGUUAGUGAUGUUGAUAUUUGGUUUAUGUAUUUAAGAAGGGAUUUAGCGGU [frrvemullin]	492
UUUCGGUUCUGAGGAUAUUCGGACAAAUAUAGUGAUGUUGUAUAAGGAGGAGGGUGUUGGCAGUGCGGAGAAGGCAGACCACGAU [ExFMNB.X]	575
GGAUAGGAUAGAGGAUAUGGGCUAGGCAAGAAUAACUUGUCUAGCAAAUCCAUGAGGAGUGAUGUUCCAGAAGGCUGUCCUAUCG [FmnBX 1 U9]	211

Fill in: apparent KD of K4 kissing-loop reporter of GGAAGACACCUGAGUGAUGUUCGGGUGUGCCGAGGACCGGUACGGCCGCCACUCGGGUGGUACAGUUACUGAUUGGACCGCUAUC [Arbirace] is ___
603

Item: CCGAGCUACAGCGAUACCAGUGUGGAGUGAUGUUCCCUGGUCCGGGCUGUUGUUCCCUUGCGCCCUUGGCAGCGCAGAAGCAGCU [Exclusion Theophylline B GF 14]
267

Item: GCAAUCCCGGCGGCCGCCACUUUCAUACCAGUGAUGUUGAGUAGGAAAUGGAAUAUGCGCUGAAUAAGGACCGGGCCUAAGGAGA [theeternabot_exclusion_KL_Trp_B_47]
255

###

# System: MS2 coat protein
# experiment.summary: apparent KD of MS2 coat protein; designed switch direction (-1 OFF switch, 1 ON switch): -1; higher = weaker reporter binding
# test.context: input ligand: none
test.readout: apparent KD of MS2 coat protein (nM)
Just the number in nM, nothing appended.

See these solved cases before continuing.
sequence.chain	apparent KD of MS2 coat protein (nM)
UUUGAUAGCACAGGAUAUUGUGAUUUGAGUUGACAAGAAGGGUGUACAUGAGGAUCACCCAUGUAAUGGUUGCCUCGUUGACUU [JR_ExcNG1_Sub006] (Eterna round: R96, puzzle: Exclusion NG 1)	46.8
UAUUAGCAAGCAAGAUCCCACAUGAGGAUCACCCAUGUGCUCGUCUUAUAAGGUACUGUGACGAUAGUCACGGUACC [Mat - Sensor, turn-off var - Eli Mod - D46] (Eterna round: R97, puzzle: Sensor, turn-off variant 1)	54.1
UUUUAGCAAGCGAGUAUUAACAUGAGGAUCACCCAUGUGCAUCCAGUAUUACUUUUAGAUCAAGCUCGUCUUAUAUA [JR_STOV1_v2_Sub082] (Eterna round: R97, puzzle: Sensor, turn-off variant 1)	285

With those in mind, consider the next sequence.
Fill in: apparent KD of MS2 coat protein of CGGCGGGCAGGAUAUGGAAAUAAUAACAUGAGGAUCACCCAUGUAAAUAAAUGGGAAUAACCAGAAGGGCUUGUUG [-18.2, -17.7 kcal, A 37%] (Eterna round: R97, puzzle: Exclusion 5) is ___
90.9

###

// apparent KD of MS2 coat protein lookup, one value per entry
# Test system: MS2 coat protein
# experiment.summary: apparent KD of MS2 coat protein; designed switch direction (-1 OFF switch, 1 ON switch): 1; higher = weaker reporter binding
# test.context: input ligand: none
Just the number in nM, nothing appended.

See these solved cases before continuing.
sequence.chain	unit.descriptor	reported
CUGAGCGAUCAAGGAUAUCACGUCGAAUAGACGUGAGAAGGUGAUCCAUACAUGAGGAUCACCCAUGUAUAACAUGAAGCUCAG [SSNG1/8-A1] (Eterna round: R96, puzzle: Same State NG 1)	nM	404
UUAUUAUUUACAUGAGGAUCACCCAUGUUUUUAUGUCUUAGACAGGAUAUAGUAGUCUCGUUUUACUAGAAGGGUCUUUUUAUU [JR_SSNG3_Sub018] (Eterna round: R96, puzzle: Same State NG 3)	nM	39.4

Find the measured apparent KD of MS2 coat protein: item GCCAACAUGAGGAUCACCCAUGUCCGGAAGUGAAUUCAAAGUGAGGAUAUGGAGAGACCGAAAAUCCAGAAGGCACGCACAUGC [Eternabot solution 10] (Eterna round: R96, puzzle: Same State NG 3) , target or system MS2 coat protein.
1260

Item: UUGAGAAAUUAAGGAUAUUGAGUACAUAUGUUUAACAUGAGGAUCACCCAUGUGGGUUGCGGUAUCGAGAAGGUAAAUUACUAG [Mat - same State NG 2 - JL mod - D72] (Eterna round: R96, puzzle: Same State NG 2)
112

###

// apparent KD of MS2 coat protein lookup, one value per entry
# System: MS2 coat protein
# experiment.summary: apparent KD of MS2 coat protein; higher = weaker reporter binding
# test.context: Eterna round: R107; input ligand: theophylline 20 uM
Just the number in nM, nothing appended.

See these solved cases before continuing.
sequence.chain	apparent KD of MS2 coat protein, nM
GACAUGAGGAUCACCCAUGUACCGCGAGAAGGAGCGCGGAUAAACGCAGGUAGGUCGCUCGUGGGCUCACAUUCAAUUGUAAGCU [Digece]	49.8
AAUUUAAACGGAAGGAGCGUCACUUAAUAUCAACAUGAGGAUCACCCAUGUACGGGUUGUAGACAGGUAGGUCGCCGUCAUUUGA [#15 Same State - Arginine B]	74.5
ACAUGAGGAUCACCCAUGUUCCUCAUUGAUACCAGUGAAUUUAGACGCCCUUGGCAGCGAGUUUUUUUAGAAGAAGUUUUUUUUU [6.F]	659
AGCAGAUCCCAGCGAAAGCUGGGAUCUGCACGAGGACCGGUACGGCCGCCACUCGAGGACAUGAGGAUCACCCAUGUACCGGUCA [Glorfindel]	64.6
GCAUCCUAGUCGGCCGCCACUGCAACAUGAGGAUCACCCAUGUCUGCAUCUUCAUGAUGCAGUAGCAGGACCGGGACUAGGAUGC [(T1)-(M1)-(M2)-(T)''-(M)'-(T)'-(T2)_Design1_2/18/17]	153
GCACCAGGUACGGAUACCAGCUAUAGGUACAGCGGAGGACAUGAGGAUCACCCAUGUGGUAGCCCUUGGCAGCUGUACCUGGUGC [EThB NP+V+V2 #1 +-Same Structure]	23.9
UUGUAUAUGCGAAGGAGCGGGAAAUAUAUAUAUAUAAUCCUAACAUGAGGAUCACCCAUGUCCCAGGUAGGUCGCGCAUAUAUGG [12.F]	80.7
AGAUUUAUUUUGACCGGGCUCAUUCCUGAAGGAGCGCAGAACAAUGCAGGUAGGUCGCAGGACAUGAGGAUCACCCAUGUCAAGC [Isaes]	18.3
UCGUGUAUAACGGAUACCAGUGAGAAGGAUACAUGAGGAUCACCCAUGUGAGUUGAUCCACACCCUUGGCAGCUGUAUAUAUCUA [alamullin]	468
CUAUGCAGGUCGGCCGCCACUACACACAUGAGGAUCACCCAUGUAGUUACUGGGUGAAGUGGCAGUAGGACCGGGACCUGCACAU [Brourdmod15]	578

Fill in: apparent KD of MS2 coat protein of CUCAUCCACGCGGCCGCCACUAUAUUGUGGUGCGUAUGUGUCGUAAUACAUGAGGAUCACCCAUGUAGGACCGGGCGUGGAUGAG [#10 Exclusion Tryptophan B] is ___
14.3

Item: AUACCUAAUGAGUCGUGUAACUUUUCAGAUACCAGACUUUUCGUUGUCCCUUGGCAGCUGUUUUACAUGAGGAUCACCCAUGUUG [JR_ExcTheophyA_Sub008]
18.5

The measured values listed here are drawn from the supplement of paper PMC9170038.
